Cited source for all entries: the array DNA melting data of Ke et al.

Assay: melting temperature; melt of duplexes
Settings: sodium 0.0675 M; strand 1 µM
measurementLabel: Tm (°C)
Please give a number only; it is taken to be in °C.

QUERY: Name the recorded Tm for CGACGTGCATGATGTGCTG+CAGCACATTATGCACGTCG ((((((((((.((((((((+)))))))).)))))))))) .
RESULT: 57.3

QUERY: Quick one: Tm of CGACGTGCCGCATGTGCTG+CAGCACATTAGGCACGTCG (((((((((..((((((((+))))))))..))))))))) ?
RESULT: 55.3

QUERY: Record request: Tm value, item CGACGTGCGTTATGTGCTG+CAGCACATCCCGCACGTCG (((((((((..((((((((+))))))))..)))))))))
RESULT: 51.7

QUERY: Fill blank: measured Tm of the substance CGACGTGCCGGATGTGCTG+CAGCACATCCTGCACGTCG ((((((((.((((((((((+)))))))))).)))))))) is ____.
RESULT: 58.9

QUERY: Quick one: Tm of CGACGTGCGGAATGTGCTG+CAGCACATTGGGCACGTCG ((((((((..(((((((((+)))))))))..)))))))) ?
RESULT: 53.5

QUERY: Endpoint output: Tm of CGACGTGCGGGATGTGCTG+CAGCACATCGGGCACGTCG ((((((((..(((((((((+)))))))))..)))))))) . Value?
RESULT: 56.1

QUERY: Reported Tm, substance CGACGTGCGCTATGTGCTG+CAGCACATACGGCACGTCG ((((((((..(((((((((+)))))))))..)))))))) : ____
RESULT: 50.6

----------
Assay: melting temperature; melt of duplexes
Conditions: sodium 0.0675 M; strand 1 µM
Task for the reader: assign each of the following substances its reported Tm.
Reply with the number, then its unit.

QUERY: What measured Tm goes with CGACGTGCGAGATGTGCTG+CAGCACATGCAGCACGTCG ((((((((...((((((((+))))))))...)))))))) ?
RESULT: 53.7 °C

QUERY: # input substance: CGACGTGCAGAATGTGCTG+CAGCACATCATGCACGTCG (((((((((..((((((((+))))))))..))))))))) ; wanted: its Tm
RESULT: 53 °C

QUERY: Would you mind telling me what Tm value was observed for CGACGTGCAGAATGTGCTG+CAGCACATGTAGCACGTCG ((((((((...((((((((+))))))))...)))))))) ?
RESULT: 53.4 °C

QUERY: I'd like to know its Tm. The substance in question is CGACGTGCGGAATGTGCTG+CAGCACATTGCGCACGTCG (((((((((.(((((((((+))))))))).)))))))))
RESULT: 61.2 °C

QUERY: Please give the measured Tm for this substance: CGACGTGCTGTATGTGCTG+CAGCACATCCTGCACGTCG ((((((((.(.((((((((+)))))))).).))))))))
RESULT: 51.5 °C

QUERY: Using the record for CGACGTGCAAAATGTGCTG+CAGCACATCAGGCACGTCG ((((((((...((((((((+))))))))...)))))))) , report its Tm.
RESULT: 49.4 °C

QUERY: Name the reported Tm value associated with the substance CGACGTGCCTAATGTGCTG+CAGCACATTCGGCACGTCG (((((((((.(((((((((+))))))))).)))))))))
RESULT: 57 °C

QUERY: Which Tm value is on record for CGACGTGCATTATGTGCTG+CAGCACATCGTGCACGTCG (((((((((..((((((((+))))))))..))))))))) ?
RESULT: 47.3 °C

QUERY: Name the reported Tm value associated with the substance CGACGTGCGTTATGTGCTG+CAGCACATTACGCACGTCG ((((((((((.((((((((+)))))))).))))))))))
RESULT: 58.6 °C

QUERY: Tm for CGACGTGCCACATGTGCTG+CAGCACATAACGCACGTCG ((((((((...((((((((+))))))))...)))))))) ?
RESULT: 47.1 °C

QUERY: Fill blank: measured Tm of the substance CGACGTGCGAAATGTGCTG+CAGCACATGTCGCACGTCG ((((((((((.((((((((+)))))))).)))))))))) is ____.
RESULT: 58.9 °C

QUERY: Value lookup for Tm; key = CGACGTGCCCGATGTGCTG+CAGCACATATTGCACGTCG ((((((((...((((((((+))))))))...))))))))
RESULT: 47.7 °C

QUERY: What Tm value was documented for this substance, CGACGTGCTATATGTGCTG+CAGCACATGGGGCACGTCG ((((((((...((((((((+))))))))...)))))))) ?
RESULT: 51 °C

QUERY: Record request: Tm value, item CGACGTGCGTGATGTGCTG+CAGCACATTCGGCACGTCG ((((((((...((((((((+))))))))...))))))))
RESULT: 51.5 °C

QUERY: What value of measured Tm is listed for CGACGTGCGGAATGTGCTG+CAGCACATGCTGCACGTCG ((((((((.(.((((((((+)))))))).).)))))))) ?
RESULT: 54.7 °C

QUERY: Query (substance): CGACGTGCGACATGTGCTG+CAGCACATCATGCACGTCG ((((((((...((((((((+))))))))...)))))))) ; field requested: Tm
RESULT: 49.1 °C

QUERY: Give the measured Tm of CGACGTGCACGATGTGCTG+CAGCACATCAGGCACGTCG ((((((((..(((((((((+)))))))))..)))))))) .
RESULT: 53.4 °C

QUERY: What does the record list as Tm for CGACGTGCGTGATGTGCTG+CAGCACATATGGCACGTCG ((((((((...((((((((+))))))))...)))))))) ?
RESULT: 50 °C

QUERY: # query: Tm of entry CGACGTGCTCGATGTGCTG+CAGCACATCGTGCACGTCG ((((((((.((((((((((+)))))))))).))))))))
RESULT: 59 °C

QUERY: Entry under review: CGACGTGCGCAATGTGCTG+CAGCACATCCTGCACGTCG ((((((((...((((((((+))))))))...)))))))) . Reported Tm?
RESULT: 49.2 °C

QUERY: Value lookup for Tm; key = CGACGTGCAATATGTGCTG+CAGCACATTCGGCACGTCG ((((((((...((((((((+))))))))...))))))))
RESULT: 49.5 °C

QUERY: Entry CGACGTGCGAGATGTGCTG+CAGCACATCGAGCACGTCG ((((((((..(((((((((+)))))))))..)))))))) : reported Tm = ?
RESULT: 64.5 °C

QUERY: Report Tm for CGACGTGCATAATGTGCTG+CAGCACATTGGGCACGTCG ((((((((..(((((((((+)))))))))..)))))))) please.
RESULT: 54.2 °C

QUERY: Find the recorded Tm belonging to CGACGTGCCCGATGTGCTG+CAGCACATCCTGCACGTCG ((((((((..(((((((((+)))))))))..)))))))) and report it.
RESULT: 52.5 °C

QUERY: Look up Tm for this substance: CGACGTGCTTAATGTGCTG+CAGCACATATCGCACGTCG ((((((((...((((((((+))))))))...))))))))
RESULT: 48 °C

QUERY: Can you share its Tm? I mean this substance: CGACGTGCAGCATGTGCTG+CAGCACATAACGCACGTCG ((((((((...((((((((+))))))))...))))))))
RESULT: 47.6 °C

QUERY: Which measured Tm value corresponds to CGACGTGCGGTATGTGCTG+CAGCACATACGGCACGTCG ((((((((.((((((((((+)))))))))).)))))))) ?
RESULT: 58.5 °C

QUERY: Look up Tm for this substance: CGACGTGCATCATGTGCTG+CAGCACATTACGCACGTCG ((((((((.(.((((((((+)))))))).).))))))))
RESULT: 48.1 °C

QUERY: Fill in: Tm of CGACGTGCGCAATGTGCTG+CAGCACATTAGGCACGTCG ((((((((..(((((((((+)))))))))..)))))))) is ___
RESULT: 52.7 °C
